- protocol.details: Confirmation screen for delayed death inhibitors of the malarial parasite plastid, 96 hour incubation; also: nearly all actives have a fitted effect of over 60% in size
- test.conditions: P. falciparum luciferase growth in erythrocytes; series mostly up to 28.7 µM
Hit rate of the full screen: of about 2,300 compounds, about 1,400 (61%) were called active. Roughly 29% stayed inconclusive and do not appear here. Calls follow the shape of the dose curve; as a rule, active = well fitted inhibition curve with a large enough effect; inconclusive = small, poorly fitted or top-dose-only effect, or effect the other way; inactive = no such curve, though single readings can be large or run the other way. The set was probably picked from earlier hits. The list shows a part of the results.
Parameter call: string, one of active, inactive

*Q* Look up the recorded call for O=C(c1ccc(S(=O)(=O)Cc2ccccc2Cl)c([N+](=O)[O-])c1)N1CCOCC1 in this test.
*A* active

*Q* For CCOC(=O)c1ccc(Nc2nc(=O)c3cccnc3s2)cc1 , what call appears in the results of this test?
*A* inactive

*Q* Hello, I am checking results. What call was entered for COc1ccccc1Nc1nnc(SCC(=O)Nc2nc(-c3ccc(F)cc3)cs2)s1 ?
*A* active

*Q* Identify the outcome logged in this assay for the compound shown: CSc1nnc2c3ccccc3n(CCc3ccccc3)c2n1
*A* active

Data origin: PubChem BioAssay AID504848
